Biological target: human CD28 (human, UniProt P10747 19-220)
Test: cell-based or functional assay
# key: entry, value: MLR assay (EC50)
Numbers only here, please. The scale is µM.

Sample records with MLR assay (EC50):
binder	unit_string	MLR assay (EC50)
1h-99-236 (other) VH: EVQLLESGGGLVQPGGSLRLSCAASGFTFDSANMSWVRQAPGKGLEWVSWIEAPGKQTFYADSVKGRFTISRDNSKNTLYLQMNSLRAEDTAVYYCAKSPFGPLYGFDYRGRGTLVTVSS	µM	0.014
1h-79-30 (other) VL: DIQMTQSPSSLSASVGDRVTITCRASQPIGHSFGWYQQKPGKAPKLLIYWASMLQSGVPSRFSGSGSGTDFTLTISSLQPEDFATYYCQQMLRTPFSFGQGTKVEIKR	µM	0.126
1h-99-275 (other) VH: EVQLLESGGGLVQPGGSLRLSCAASGFTFKDKNMSWARQAPGKGLEWVSWIEDTGTQTFYADSVKGRFTISRDNSKNTLYLQMNSLRAEDTAVYYCARSPFGPLYGFDYRGQGTLVTVSS	µM	0.01
1h-79-1520 (other) VL: DIQMTQSPSSLSASVGDRVAITCRASQPIGHSLGWYEQKPGKAPKLLIYWSSVLISGVPSRFSGSGSGTDFTLTISSLQPEDFATYYCQQMLRTPFTFGQGTKVEIKR	µM	0.068

# context switch: different binder, same MLR assay (EC50)
Identify measured MLR assay (EC50) corresponding to 1h-79-26 (other) VL: DIQMTQSPSSLSASVGDRVTITCRASQPIGHSLGWYQQKPGKAPKLLIYWASMLQSGVPSRFSGSGSGTDFTLTISSLQPEDFATYYCQQMLRTPFSFGQGTKVEIKR
0.038
